# System: Pseudomonas aeruginosa
# measurement_protocol: Antibacterial activity against Pseudomonas aeruginosa ATCC 27853 assessed as inhibition of bacterial growth at 1 to 256 ug/ml incubated for 24 hrs by resazurin dye based broth microdilution method
# Type: functional, organism-based
# settings: dose 1-256 µg/ml
Active and inactive are the calls of the source. No cut-off for these calls is given here.
outcome_measure: Activity

Solved entries:
COc1cccc(C(=O)NS(=O)(=O)c2ccc(NC(C)=O)cc2)c1 : inactive
CC(=O)Nc1ccc(S(=O)(=O)NC(=O)c2ccc(Cl)cc2Cl)cc1 : inactive
CC(=O)Nc1ccc(S(=O)(=O)NC(C)=O)cc1 : inactive
CC(=O)Nc1ccc(S(=O)(=O)NC(=O)c2ccc([N+](=O)[O-])cc2)cc1 : inactive

Batch lookup, Activity per entry.
1. COc1cc(C(=O)NS(=O)(=O)c2ccc(NC(C)=O)cc2)ccc1[N+](=O)[O-]
2. COc1ccccc1C(=O)NS(=O)(=O)c1ccc(NC(C)=O)cc1
3. CC(=O)Nc1ccc(S(=O)(=O)NC(=O)c2cc(F)c(F)c(F)c2)cc1
4. CC(=O)Nc1ccc(S(=O)(=O)NC(=O)c2ccc(C(F)(F)F)cc2)cc1
5. CC(=O)Nc1ccc(S(=O)(=O)NC(=O)c2ccccc2)cc1

result:
inactive
inactive
inactive
inactive
inactive

----------
# Tested on: Staphylococcus aureus
# measurement_protocol: Antibacterial activity against Staphylococcus aureus CIP 107093 assessed as inhibition of bacterial growth incubated for 24 hrs by resazurin dye based broth microdilution method
# Type: functional
outcome_measure: MIC

COc1cccc(C(=O)NS(=O)(=O)c2ccc(N)cc2)c1 : > 256 µg/mL
Nc1ccc(S(=O)(=O)NC(=O)c2ccc([N+](=O)[O-])cc2)cc1 : > 256 µg/mL
COc1ccccc1C(=O)NS(=O)(=O)c1ccc(N)cc1 : 256 µg/mL

Batch lookup, MIC per entry.
1. Nc1ccc(S(=O)(=O)NC(=O)c2cc(F)c(F)c(F)c2)cc1
2. Nc1ccc(S(=O)(=O)NC(=O)c2ccc(C(F)(F)F)cc2)cc1
3. COc1cc(C(=O)NS(=O)(=O)c2ccc(N)cc2)ccc1[N+](=O)[O-]

result:
1: > 256 µg/mL; 2: > 256 µg/mL; 3: > 256 µg/mL

Batch lookup, MIC per entry.
1. Nc1ccc(S(=O)(=O)NC(=O)c2ccc(Cl)cc2Cl)cc1
2. CC(=O)NS(=O)(=O)c1ccc(N)cc1 [SULFACETAMIDE]
3. Nc1ccc(S(=O)(=O)NC(=O)c2ccccc2)cc1 [SULFABENZAMIDE]

result:
1. > 256 µg/mL
2. 256 µg/mL
3. > 256 µg/mL
